# credit: patent US20240317722A1

assay summary: Pharmacokinetics of compounds in mice
Type: in vivo, C57BL/6N mice
run conditions: male, C57BL/6N, mouse, plasma, intravenous injection, 1 mg/kg, read-out: Apparent volume of distribution
// values below are reported Vd
property label: Vd (L/kg)

| compound | display unit | result value |
| --- | --- | --- |
| Cc1c(Cl)cc(NC(=O)NCc2ccc3c(C4CCC(=O)NC4=O)coc3c2)cc1OCCN1CCOCC1 (centres unmarked) [WX006] | L/kg | 2.3 |
| COCCOc1cc(NC(=O)NCc2ccc3c(C4CCC(=O)NC4=O)coc3c2)cc(Cl)c1C (centres unmarked) [WX005] | L/kg | 0.35 |

----------
assay summary: Pharmacokinetics of compounds in mice
Type: in vivo, C57BL/6N mice
run conditions: administration by gavage, 10 mg/kg
// values below are reported Peak concentration
property label: Peak concentration (µM)

| molecule | display unit | result value |
| --- | --- | --- |
| Cc1c(Cl)cc(NC(=O)NCc2ccc3c(C4CCC(=O)NC4=O)coc3c2)cc1OCCN1CCOCC1 (stereo not shown) | µM | 1.76 |
| Cc1c(Cl)cc(NC(=O)NCc2ccc3c(C4CCC(=O)NC4=O)noc3c2)cc1OCCN1CCOCC1 (stereo not shown) | µM | 0.69 |
| COCCOc1cc(NC(=O)NCc2ccc3c(C4CCC(=O)NC4=O)noc3c2)cc(Cl)c1C (stereo not shown) | µM | 3.06 |
| COCCOc1cc(NC(=O)NCc2ccc3c(C4CCC(=O)NC4=O)coc3c2)cc(Cl)c1C (stereo not shown) | µM | 23.27 |

----------
assay summary: Pharmacokinetics of compounds in mice
Assay type: in vivo, C57BL/6N mice
run conditions: male, C57BL/6N, mouse, plasma, intravenous injection, 2 mg/kg, read-out: Elimination half-life (converted)

| molecule | half-life / h |
| --- | --- |
| COCCOc1cc(NC(=O)NCc2ccc3c(C4CCC(=O)NC4=O)noc3c2)cc(Cl)c1C (centres unmarked) | 5.11 |
| Cc1c(Cl)cc(NC(=O)NCc2ccc3c(C4CCC(=O)NC4=O)noc3c2)cc1OCCN1CCOCC1 (centres unmarked) | 1.85 |

----------
assay summary: Pharmacokinetics of compounds in mice
Assay type: in vivo, C57BL/6N mice
run conditions: administration by gavage, 10 mg/kg
property label: Area under the plasma concentration-time curve (0-inf) (µM·h)

| molecule | display unit | result value |
| --- | --- | --- |
| Cc1c(Cl)cc(NC(=O)NCc2ccc3c(C4CCC(=O)NC4=O)noc3c2)cc1OCCN1CCOCC1 (stereo not shown) | µM·h | 1.99 |
| Cc1c(Cl)cc(NC(=O)NCc2ccc3c(C4CCC(=O)NC4=O)coc3c2)cc1OCCN1CCOCC1 (stereo not shown) | µM·h | 2.71 |
| COCCOc1cc(NC(=O)NCc2ccc3c(C4CCC(=O)NC4=O)noc3c2)cc(Cl)c1C (stereo not shown) | µM·h | 40.90 |
| COCCOc1cc(NC(=O)NCc2ccc3c(C4CCC(=O)NC4=O)coc3c2)cc(Cl)c1C (stereo not shown) | µM·h | 108.89 |

----------
System: MV4-11
assay summary: Anti-proliferative effect in MV4-11 (CellTiter-Glo)
Assay type: cell-based
run conditions: Homo sapiens, 72 h; MV4-11, 3 days
property label: IC50 (nM)

| molecule | property label | result value |
| --- | --- | --- |
| Cc1ccc(NC(=O)NCc2ccc3occ(C4CCC(=O)NC4=O)c3c2)cc1Cl (centres unmarked) | IC50 | 30.5 |
| O=C(COc1cccc(-c2csc(N3CCOCC3)n2)c1)NCCCCCCC(=O)Nc1ccc2c(C3CCC(=O)NC3=O)coc2c1 (centres unmarked) | IC50 | 6 |
